Sourced from paper PMC8510478

# System: α-glucosidase
# experiment: α-Glucosidase inhibitory activity (rat intestinal acetone powder, maltose substrate)
# Format: biochemical
recordedMetric: α-Glucosidase inhibitory activity (in words)

compound=O=c1oc2c(Oc3ccc(O)c(O)c3O)c(O)cc3c(=O)oc4c(O)c(O)cc1c4c23 observed="no inhibitory activity"
compound=O=C(O)c1cc(O)c(O)c(O)c1 observed="little effect"
compound=O=c1oc2c(O)c(Oc3ccc(O)c(O)c3O)cc3c(=O)oc4c(O)c(O)cc1c4c23 observed="no inhibitory activity"
compound=COc1cc([C@H]2Oc3c(OC)cc(CCCO)cc3[C@@H]2CO)ccc1O observed="no inhibitory activity"

Tell me α-Glucosidase inhibitory activity (in words) of O=c1oc2c(O)c(O)cc3c(=O)oc4c(O)c(O)cc1c4c23 [Ellagic acid, reference compound] when tested on α-glucosidase. little effect

For α-glucosidase, give the measured α-Glucosidase inhibitory activity (in words) of the entry COc1cc(C2Oc3c(OC)cc(CCCO)cc3C2COC2OC(CO)C(O)C(O)C2O)ccc1O (stereo not drawn) no inhibitory activity
